Biological target: T1, CTLA-4-hFc (immunogen A; hFc-labeled CTLA-4 extracellular domain protein) (human, UniProt P16410 36-161)
T1 construct: range 36-161; Made in HEK293 cells, purified on protein A; also called CLTA-4-hFc; CTLA-4 protein; not shown: human IgG Fc fragment (hFc) of the pCpC vector
T1 sequence (looked up): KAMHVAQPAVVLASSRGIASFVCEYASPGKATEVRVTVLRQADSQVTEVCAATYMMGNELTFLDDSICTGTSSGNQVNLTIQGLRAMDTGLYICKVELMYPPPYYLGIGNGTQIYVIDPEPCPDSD
Assay: blocking assay, CTLA-4 protein, competitor B7.2
Attribute measured: % Block at 200 nM (%)

{"columns": ["Binder", "Attribute measured", "Meas value"],
 "data": [
  ["92C8B6 fully human CTLA-4 antibody (human IgG1, kappa) (antibody, V domains shown, also called mAb42; mAb042) VH: QVQLVESGGGVVQPGRSLRLSCAASGFTFSNFGMHWVRQAPGKGLEWVAVIWYDGSNKYYADSVKGRFTISRDNSKNTLFLQMNGLRAEDTAVYYCAKGGILMAGTLDYWGQGTLVTVSS VL: DIQMTQSPSSLSASVGDRVTITCRASQSVSTYLNWYQQKPGKAPKLLIYAASSFQSGVPSRFSGSGSGTDFTLTISSLQPEDFATYFCQQSYSTPFTFGPGTKVDIK", "% Block at 200 nM", 99.2]
]}
